measurement.target: 5-hydroxytryptamine receptor 1A (Homo sapiens)
Sequence (P08908 whole entry): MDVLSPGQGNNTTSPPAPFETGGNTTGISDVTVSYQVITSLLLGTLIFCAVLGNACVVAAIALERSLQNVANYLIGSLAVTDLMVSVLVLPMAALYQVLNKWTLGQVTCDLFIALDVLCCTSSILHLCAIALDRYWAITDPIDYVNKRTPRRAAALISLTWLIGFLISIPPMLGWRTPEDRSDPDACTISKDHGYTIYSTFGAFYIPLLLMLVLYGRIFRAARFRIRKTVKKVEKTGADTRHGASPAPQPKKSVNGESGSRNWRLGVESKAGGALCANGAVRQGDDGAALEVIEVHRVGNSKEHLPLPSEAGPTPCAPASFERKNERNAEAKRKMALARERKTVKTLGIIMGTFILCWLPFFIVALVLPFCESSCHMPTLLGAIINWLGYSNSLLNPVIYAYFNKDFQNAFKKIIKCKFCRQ
method.description: Displacement of [3H]8-OH-DPAT from human 5-HT1A receptor expressed in HEK293 cells
pIC50: −log10 of the molar value.
metric: pIC50

(P) Fc1ccc2[nH]cc(CCCN3CCN(CCCc4c[nH]c5ccc(F)cc45)CC3)c2c1
(Q) Fc1ccc2[nH]cc(CCCN3CCN(CCCc4c[nH]c5ccccc45)CC3)c2c1
-- ask Please indicate which has the smaller reported pIC50: P , or Q . Give the label of your selection.
-- reply P
(P: 5.24, Q: 7.80)

(P) Fc1ccc2[nH]cc(CCCN3CCN(CCCc4c[nH]c5ccc(Br)cc45)CC3)c2c1
(Q) c1ccc2c(CCCN3CCN(CCCc4c[nH]c5ccccc45)CC3)c[nH]c2c1
-- ask From the items above, decide which of P and Q has the lower pIC50 reading. Answer with the label corresponding to your selection.
-- reply P
(P: 5.31, Q: 5.57)
